Biological target: α1R84+119Qβ2D162+163Nγ2 GABAA receptor (Mus musculus, UniProt P62812+P63137, D186N/D187N/R111Q/R146Q)
Test: cell-based
Measured attribute: pIC50
In plain terms, pIC50 is the concentration in mol/L turned into minus its base-10 logarithm.

Which pIC50 is reported for this molecule? N=c1ccc(-c2ccc(OCc3ccc(C(=O)c4ccccc4)cc3)cc2)nn1CCCC(=O)O [GZ-B1]
3.59

* * *

Target: α1R84Qβ2γ2 GABAA receptor (Mus musculus, UniProt P62812+P63137, R111Q)
Assay: cell-based
Conditions: IC50, inhibition of GABA EC50 response
Measured attribute: IC50 (µM)
I only need the number, in µM, no unit after it.

Which IC50 is reported for this compound? N=c1ccc(-c2ccc(OCc3ccc(C(=O)c4ccccc4)cc3)cc2)nn1CCCC(=O)O
4.22

* * *

Each item that follows carries a reported pIC50.
Biological target: α1R119Qβ2R207Qγ2 GABAA receptor (Mus musculus, UniProt P62812+P63137, R146Q/R231Q)
Sequence (P62812 28-455 R146Q): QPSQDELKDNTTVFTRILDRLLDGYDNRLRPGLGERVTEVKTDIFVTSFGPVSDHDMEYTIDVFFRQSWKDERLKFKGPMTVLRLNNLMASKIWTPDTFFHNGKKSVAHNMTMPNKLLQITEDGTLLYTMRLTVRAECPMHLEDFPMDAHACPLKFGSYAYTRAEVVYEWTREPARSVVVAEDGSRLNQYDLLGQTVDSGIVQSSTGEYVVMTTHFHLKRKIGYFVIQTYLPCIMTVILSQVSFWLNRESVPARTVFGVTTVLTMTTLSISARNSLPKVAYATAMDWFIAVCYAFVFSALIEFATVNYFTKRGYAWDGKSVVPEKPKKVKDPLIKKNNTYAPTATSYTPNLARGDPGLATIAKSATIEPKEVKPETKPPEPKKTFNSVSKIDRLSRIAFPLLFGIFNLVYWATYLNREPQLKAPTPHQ
Sequence (P63137 25-474 isoform P63137-2 R231Q limits assumed): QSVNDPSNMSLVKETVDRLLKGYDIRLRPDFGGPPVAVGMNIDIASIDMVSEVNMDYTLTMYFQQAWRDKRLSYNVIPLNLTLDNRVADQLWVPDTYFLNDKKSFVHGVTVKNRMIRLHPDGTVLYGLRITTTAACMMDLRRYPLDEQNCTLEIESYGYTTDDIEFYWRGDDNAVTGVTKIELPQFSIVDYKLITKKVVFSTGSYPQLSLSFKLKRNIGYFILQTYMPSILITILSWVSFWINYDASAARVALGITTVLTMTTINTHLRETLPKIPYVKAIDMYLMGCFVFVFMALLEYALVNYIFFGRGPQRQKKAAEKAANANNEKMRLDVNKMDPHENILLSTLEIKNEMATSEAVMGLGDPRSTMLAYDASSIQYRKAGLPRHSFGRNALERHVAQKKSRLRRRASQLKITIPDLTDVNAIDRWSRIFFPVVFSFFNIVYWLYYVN
Sequence (P22723 39-466 isoform P22723-2 partner limits assumed): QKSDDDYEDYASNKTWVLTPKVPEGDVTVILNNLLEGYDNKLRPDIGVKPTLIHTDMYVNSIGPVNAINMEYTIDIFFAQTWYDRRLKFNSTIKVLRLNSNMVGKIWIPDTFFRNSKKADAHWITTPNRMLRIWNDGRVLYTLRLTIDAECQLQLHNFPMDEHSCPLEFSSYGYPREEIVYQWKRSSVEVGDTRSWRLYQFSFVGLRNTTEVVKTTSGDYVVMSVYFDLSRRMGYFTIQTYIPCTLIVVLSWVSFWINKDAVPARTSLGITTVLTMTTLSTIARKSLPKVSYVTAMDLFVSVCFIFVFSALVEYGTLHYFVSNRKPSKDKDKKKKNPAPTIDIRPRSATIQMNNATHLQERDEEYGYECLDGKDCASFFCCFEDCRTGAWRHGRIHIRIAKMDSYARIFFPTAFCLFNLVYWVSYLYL
Experiment: cell-based
In plain terms, pIC50 is the concentration in mol/L turned into minus its base-10 logarithm.

1) N=c1ccc(-c2ccc(OCc3ccc(C(=O)c4ccccc4)cc3)cc2)nn1CCCC(=O)O: 6.38

Which pIC50 is reported for this compound? COc1ccc(-c2ccc(=N)n(CCCC(=O)O)n2)cc1 [gabazine, reference compound]
5.43
